Parameter Crabgrass, Large plant response rating: see the listing below.
# System: large crabgrass (Digitaria sanguinalis)
# Assay overview: Test B pre-/postemergence plant response
# Type: in vivo
# Experimental conditions: 8 g ai/ha, postemergence; 0-100 scale
Note: the reply should be a number with no unit written.

Study these solved cases before continuing.
Compound smiles | Crabgrass, Large plant response rating
Cc1cc(-c2ccc(Cl)cc2)nn1-c1c(OC(=O)c2ccccc2)cnn(C)c1=O | 70
CCc1c(C)c(-c2ccc(Cl)cc2)nn1-c1c(O)cnn(C)c1=O | 45
CCc1cc(-c2ccc(Cl)cc2)nn1-c1c(OS(C)(=O)=O)cnn(C)c1=O | 70
CCc1cc(-c2ccc(Br)cc2)nn1-c1c(O)cnn(C)c1=O | 98

Next compound, Crabgrass, Large plant response rating to be filled in.
Any idea what its Crabgrass, Large plant response rating is? The compound is `CCc1cc(-c2ccc(F)cc2)nn1-c1c(O)cnn(C)c1=O` 5
